All values here come from patent US20210085640A1.

System: MCF7 breast cancer cells
Assay: Cancer cell survival (CellTiter-Glo), MCF7
Assay type: cell-based
Details: 100 μM, 72 h, Table 5.2
measured-quantity: Cell survival at given concentration

Query :: Report Cell survival at given concentration for CC(O)CC(=O)O (stereo not drawn) [beta-hydroxybutyrate] please.
Result :: 1.03

Query :: Look up Cell survival at given concentration for this molecule: CC(=O)O [acetate]
Result :: 1.02

Query :: # input molecule: CCCCC(=O)O [valerate] ; wanted: its Cell survival at given concentration
Result :: 1.00

Query :: I have this molecule here, CC(O)CCO (stereo not shown) , and I need its recorded Cell survival at given concentration.
Result :: 1.03
